Every entry's value here was drawn from the supplement of paper PMC10883282.

Tested on: SW982
Procedure Summary: relative viability vs DMSO control (72 h) (fraction); higher = more viable cells
Condition Notes: 1.111 µM
Quantity Kind: relative viability
I only need the number, thanks.

| Structure String | relative viability |
| --- | --- |
| CC(=O)Nc1cccc(-n2c(=O)n(C3CC3)c(=O)c3c(Nc4ccc(I)cc4F)n(C)c(=O)c(C)c32)c1 | 0.858 |
| Cc1cc(C)c(/C=C2\C(=O)Nc3ccccc32)[nH]1 | 0.904 |
| COc1c(OCCCN2CCOCC2)ccc2c1N=C(NC(=O)c1cnc(N)nc1)N1CCN=C21 | 0.213 |
| Cn1cnc2c(F)c(Nc3ccc(Br)cc3F)c(C(=O)NOCCO)cc21 | 0.809 |
| C=CC(=O)Nc1cccc(Oc2nc(Nc3ccc(N4CCN(C)CC4)cc3)nc3ccsc23)c1 | 0.822 |

Consider CCN1CCN(Cc2ccc(Nc3ncc(F)c(-c4cc(F)c5nc(C)n(C(C)C)c5c4)n3)nc2)CC1 . Its measured relative viability is 0.469
